From: ChEMBL document CHEMBL4321817

- test: Stability in mouse liver microsomes assessed as half life
- Format: ADME, Microsome
measured-metric: half-life (min)

> print(dat)
                        structure.as.smiles  numeric.result
1  CC1(C)C(N)=Nc2cc(OCCCN3Cc4ccc(OCCc5cn(CC(=O)N6CCC(CCN7CCCC7)CC6)nn5)cc4C3)c(OCC3CC3)cc21            37.1
